Reference source for all entries: ChEMBL document CHEMBL1138481

Test: Inhibition of human alpha thrombin by surface plasmon resonance assay
PROPERTY_NAME: pKd
As a rule, pKd stands for the negative log10 of the concentration, concentration in M.

smiles_data=CCCNC(=O)[C@@H]1CCCN1C(=O)CC(c1ccccc1)c1ccccc1 experimental_value=3.57
smiles_data=CC(C)CNC(=O)[C@@H]1CCCN1C(=O)[C@H](N)C1CCCCC1 experimental_value=4.31
smiles_data=N[C@H](Cc1ccc(Cl)cc1)C(=O)N1CCC[C@H]1C(=O)NCc1cccs1 experimental_value=5.66
smiles_data=N[C@@H](C(=O)N1CCC[C@H]1C(=O)NCc1cccs1)C(c1ccccc1)c1ccccc1 experimental_value=6.57

Could you now look at the following compound, please?
Requested field: pKd. Item: N[C@@H](C(=O)N1CCC[C@H]1C(=O)NCc1cccs1)C1CCCCC1
5.96

----------
Assay: Inhibition of human alpha thrombin by surface plasmon resonance assay
pKd: −log10 of the molar value.
Let's look at some compounds and their measured pKd.

smiles_data=CNC(=O)[C@@H]1CCCN1C(=O)CC1CCCCC1 property_name=pKd experimental_value="< 3.00"

# get_value(readout='pKd', item= CNC(=O)[C@@H]1CCCN1C(=O)CC1(O)c2ccccc2-c2ccccc21 )
< 3.00

Requested field: pKd. Item: CNC(=O)[C@@H]1CCCN1C(=O)[C@H](N)Cc1ccc(Cl)cc1
3.26

Which pKd value belongs to COCCNC(=O)[C@@H]1CCCN1C(=O)Cc1ccc2c(c1)OCO2 ?
< 3.00

Field request: pKd | item: CNC(=O)[C@@H]1CCCN1C(=O)CCc1ccc(Cl)cc1
< 3.00

Any idea what pKd was measured for O=C(NCc1cccs1)[C@@H]1CCCN1C(=O)Cc1ccc2c(c1)OCO2 ?
3.60

----------
Assay: Inhibition of human alpha thrombin by surface plasmon resonance assay
PROPERTY_NAME: Kd (µM)
# value in µM; strip the unit string

smiles_data=CNC(=O)[C@@H]1CCCN1C(=O)[C@H](NS(=O)(=O)Cc1ccccc1)C1CCCCC1 property_name=Kd unit_tag=µM experimental_value=35
smiles_data=O=C(NCc1cccs1)[C@@H]1CCCN1C(=O)CC1(O)c2ccccc2-c2ccccc21 property_name=Kd unit_tag=µM experimental_value=23
smiles_data=COCCNC(=O)[C@@H]1CCCN1C(=O)CCc1ccc(Cl)cc1 property_name=Kd unit_tag=µM experimental_value=620
smiles_data=COCCNC(=O)[C@@H]1CCCN1C(=O)[C@H](N)Cc1ccc(Cl)cc1 property_name=Kd unit_tag=µM experimental_value=140
smiles_data=O=C(NCc1cccs1)[C@@H]1CCCN1C(=O)CCc1ccc(Cl)cc1 property_name=Kd unit_tag=µM experimental_value=700
smiles_data=COCCNC(=O)[C@@H]1CCCN1C(=O)CC1(O)c2ccccc2-c2ccccc21 property_name=Kd unit_tag=µM experimental_value=750
smiles_data=CCCNC(=O)[C@@H]1CCCN1C(=O)[C@H](N)Cc1ccc(Cl)cc1 property_name=Kd unit_tag=µM experimental_value=45
smiles_data=CNC(=O)[C@@H]1CCCN1C(=O)[C@H](N)C(c1ccccc1)c1ccccc1 property_name=Kd unit_tag=µM experimental_value=38

Endpoint output: Kd of N[C@@H](C(=O)N1CCC[C@H]1C(=O)NCC1CCCCC1)C1CCCCC1 . Value?
9

Can you share its Kd? I mean this molecule: O=C(NCc1cccs1)[C@@H]1CCCN1C(=O)CC(c1ccccc1)c1ccccc1
34

Requested read-out: Kd. Entry: O=C(NCc1cccs1)[C@@H]1CCCN1C(=O)CC1CCCCC1
1000

Fill in: Kd of CNC(=O)[C@@H]1CCCN1C(=O)[C@H](N)C1CCCCC1 is ___
790

Record request: Kd value, item CCCNC(=O)[C@@H]1CCCN1C(=O)[C@H](N)C1CCCCC1
27

Given the molecule CCCNC(=O)[C@@H]1CCCN1C(=O)CC1(O)c2ccccc2-c2ccccc21 , what is its reported Kd?
99

What value of measured Kd is listed for COCCNC(=O)[C@@H]1CCCN1C(=O)[C@H](N)C1CCCCC1 ?
110

Kd lookup needed for COCCNC(=O)[C@@H]1CCCN1C(=O)[C@H](N)C(c1ccccc1)c1ccccc1 , thanks.
6.8
